Recorded log10 of Kd by entry
target system: T1, human TF ECD-His6 (human, UniProt P13726 33-251)
T1 construct: Expi293-derived; Biacore used TF-His; also called TF-His; hTF
experiment description: BLI (ForteBio Octet)
Lab note - Kd converted to log10 from values in nM.

Sample records with log10 of Kd:
54E (antibody, human IgG1, V domains shown, Human IgG1; also called antibody designated 54E) VH: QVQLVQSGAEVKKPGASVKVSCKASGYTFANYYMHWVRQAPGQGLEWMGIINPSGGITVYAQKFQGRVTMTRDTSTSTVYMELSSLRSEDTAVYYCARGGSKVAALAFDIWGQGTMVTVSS VL: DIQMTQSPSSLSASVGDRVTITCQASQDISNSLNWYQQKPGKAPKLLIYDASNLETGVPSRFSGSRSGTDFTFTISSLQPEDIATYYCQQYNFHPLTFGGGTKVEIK: 0.20
25G9 (antibody, human IgG1, V domains shown, Human IgG1; also called antibody designated 25G9) VH: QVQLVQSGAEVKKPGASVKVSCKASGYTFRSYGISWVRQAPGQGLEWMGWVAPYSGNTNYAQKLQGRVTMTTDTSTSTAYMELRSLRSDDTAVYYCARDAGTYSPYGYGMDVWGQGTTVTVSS VL: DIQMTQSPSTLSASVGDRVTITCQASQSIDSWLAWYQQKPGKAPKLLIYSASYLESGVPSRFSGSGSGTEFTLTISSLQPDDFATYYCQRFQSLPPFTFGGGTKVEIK: 1.55
39A (antibody, human IgG1, V domains shown, Human IgG1; also called antibody designated 39A) VH: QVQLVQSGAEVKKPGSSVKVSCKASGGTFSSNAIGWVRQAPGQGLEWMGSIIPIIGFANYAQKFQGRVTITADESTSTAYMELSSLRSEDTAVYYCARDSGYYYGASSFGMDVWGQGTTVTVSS VL: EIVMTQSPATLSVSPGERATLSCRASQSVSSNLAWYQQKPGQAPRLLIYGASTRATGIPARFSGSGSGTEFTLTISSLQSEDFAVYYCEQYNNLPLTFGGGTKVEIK: -0.08
25G (antibody, human IgG1, V domains shown, Human IgG1; also called antibody designated 25G) VH: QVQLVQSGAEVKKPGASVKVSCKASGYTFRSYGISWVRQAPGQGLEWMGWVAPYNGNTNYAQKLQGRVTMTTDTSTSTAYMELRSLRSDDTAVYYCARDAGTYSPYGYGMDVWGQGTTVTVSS VL: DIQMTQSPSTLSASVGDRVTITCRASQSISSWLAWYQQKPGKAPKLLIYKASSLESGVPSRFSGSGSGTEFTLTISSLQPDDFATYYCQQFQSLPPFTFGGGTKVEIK: 1.34

Next binder, please.
State the recorded log10 of Kd for this entry: 43B (antibody, human IgG1, V domains shown, Human IgG1; also called antibody designated 43B) VH: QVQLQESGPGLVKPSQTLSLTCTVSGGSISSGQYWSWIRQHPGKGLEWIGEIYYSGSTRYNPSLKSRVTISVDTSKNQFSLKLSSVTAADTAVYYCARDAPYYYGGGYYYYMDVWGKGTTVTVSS VL: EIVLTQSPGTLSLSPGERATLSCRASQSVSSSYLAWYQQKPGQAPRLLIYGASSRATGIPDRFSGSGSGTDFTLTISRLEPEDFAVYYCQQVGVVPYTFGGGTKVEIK
0.38
